Recorded growth values for a group of compounds are listed next.
tested on: MDA-MB-435 melanoma; assay: NCI-60 one-dose screen, 48 h (100 = growth as untreated, 0 = no growth, -100 = all killed); details: 10 µM unless noted
This is part of a sample that, as a whole, favours compounds with a hit. Of some 83,000 tested, about 20% had one in any assay.
Give a bare numeral; the unit % is implied.

Please review the entries below; each comes with its answer.
>>> measurement("COc1cc(OC)cc(C(=O)C[n+]2cccc3cc[nH]c32)c1")
99
>>> measurement("COc1ccc(C(C)=O)c(OC)c1")
119
>>> measurement("CCN(Cc1ccccc1)c1ccc(C=O)cc1")
107
>>> measurement("c1ccc2c(-c3nccs3)c[nH]c2c1")
101

What value of growth has been reported for the following compound? "COc1cc(/C=C\c2cc(/C=C\c3ccc(O)c(OC)c3)n(C(=O)COc3ccccc3)n2)ccc1O" 8.84

Fill blank: measured growth of the compound CN1C(=O)NC(c2ccc3c(c2)OCO3)C=C1c1ccccc1 (stereo not given) is ____. 97.5

Reported growth, compound "Cc1ccc(-n2c3c(c(-c4ccccc4)c2-c2ccccc2)C2=NCCN2C=N3)cc1" : ____ 97.8

So what does the record say about growth for "Cn1ccnc1C(=O)/C=C/c1ccc(CC(=O)Nc2ccc(Cl)cc2)cc1" ? 17.6

What does the data say about its growth? Entry: "COc1cc2oc(-c3cccc(C(=O)Nc4ccc(Cl)cc4)c3)cc(=O)c2c(O)c1OC" 61

Entry "CN(C)CCC(=O)c1ccc([N+](=O)[O-])cc1" : reported growth = ? 104

State the recorded growth for this entry: "Cc1cc2nc3c4ccc(Br)cc4n(CCN(C)C)c3nc2cc1C" 18.3

GET /values?readout=growth&item= "C=C1C(=O)O[C@H]2[C@H]1CC/C(CNC(=O)/C=C/c1cccc(OC)c1)=C\CC[C@@]1(C)O[C@@H]21" 16.7

Recorded growth of "O=C1/C=C/[C@@H](O)[C@@H]2C[C@@H](O)C[C@H]2/C=C/CCC[C@H](CCc2ccc3ncccc3c2)O1" , please. 5.74

Item "CC1(C)c2[nH]c3ccccc3c2C[C@]2(C)[C@H]3C(=O)C=C4[C@@H]5C[C@@](C)(C(N)=O)CC[C@]5(C)CC[C@@]4(C)[C@]3(C)CC[C@@H]12" has what recorded growth? 83.6

Record request: growth value, item CN(C)c1ccc(C2C(C#N)=C(/N=C/c3ccccc3)Oc3c2ccc2ccccc32)cc1 (stereo not given) 4.53

What measured growth goes with "CCNC(=O)Oc1ccc(/C(=C(\C)c2ccccc2)c2ccc(OCCCN(C)C)cc2)cc1" ? 69.6

Any idea what growth was measured for "COc1ccc(OC)c(-c2cc(-c3ccc(Cl)cc3)c3c(N)c(C(=O)c4ccc(Cl)cc4)sc3n2)c1" ? 107

Fill blank: measured growth of the compound "N#Cc1cc(-c2nc3ccccc3s2)c(=O)n(NS(=O)(=O)c2ccccc2)c1N" is ____. 102

Query (compound): "CCOC(=O)CCN(CC(C)C)C(=S)Nc1ccccc1" ; field requested: growth 102

Data request, read-out growth, for "O=S(=O)(NCCCNc1nccc(-c2c(-c3cccc(O)c3)nc3occn23)n1)c1ccc(Cl)cc1" 33.8

* * *

test system: ACHN renal; assay: NCI-60 one-dose screen, 48 h; settings: 10 µM unless noted
About 83,000 compounds went through this panel and 20% of them were active in at least one assay; those are over-represented in the sample as a whole. The source made the active and inactive calls. How the source made its calls: active means growth percent below 10; inactive means the rest.
A correct response names exactly one class from active, inactive

Please review the entries below; each comes with its answer.
>>> categorylabel("O=C(/C=C/c1ccc[nH]1)c1ccc(-n2ccc(C(F)(F)F)n2)c(F)c1")
"inactive"
>>> categorylabel("CCOC(=O)C1=C(C)NC(SCc2cc(=O)oc3ccc(F)cc23)=N[C@@H]1c1cccc2ccccc12")
"inactive"
>>> categorylabel("COC(=O)c1ccc2c(c1)[n+](=O)c(C(C)=O)c(C(F)(F)F)n2[O-]")
"active"

Field: outcome | Entry: "COc1cc2nc(-c3ccc(Cl)cc3)cc(OCCCN3CCOCC3)c2cc1OC" inactive

Which outcome was assigned to CN1C(=O)NC(c2ccc3c(c2)OCO3)C=C1c1ccccc1 (stereo not given) in this test? inactive
